# system_name: porcine trypsin (porcine, UniProt P00761 9-231)
# Sequence (P00761 9-231 limits assumed): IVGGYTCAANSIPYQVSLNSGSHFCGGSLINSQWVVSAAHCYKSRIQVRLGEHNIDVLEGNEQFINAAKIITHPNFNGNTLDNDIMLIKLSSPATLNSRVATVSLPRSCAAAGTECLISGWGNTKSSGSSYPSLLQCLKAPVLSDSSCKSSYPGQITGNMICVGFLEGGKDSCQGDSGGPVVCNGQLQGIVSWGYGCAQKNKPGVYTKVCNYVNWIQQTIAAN
# test_name: chromogenic (S-2251) amidolytic inhibition assay, trypsin 50 nM
Below, each entry is listed with its recorded Ki.
Respond with the bare value in nM.

Exercise: What does the record list as Ki for F42A KD1 (other, Point mutant of His-tagged KD1, KD1 numbering; also called F42A (F33A); not shown: N-terminal decahistidine-tag leader and enterokinase cleavage site from pET19b) DAAQEPTGNNAEICLLPLDYGPCRALLLRYYYDRYTQSCRQALYGGCEGNANNFYTWEACDDACWRIEKVPKV ?
Key: 155

Exercise: Can you check R24Q KD1 (other, Point mutant of His-tagged KD1, KD1 numbering; also called R24Q (R15Q); not shown: N-terminal decahistidine-tag leader and enterokinase cleavage site from pET19b) DAAQEPTGNNAEICLLPLDYGPCQALLLRYYYDRYTQSCRQFLYGGCEGNANNFYTWEACDDACWRIEKVPKV next?
Key: 296
